Test: Inhibition of bacterial DNA topoisomerase 4

{"columns": ["COMPOUND", "IC50"],
 "data": [
  ["Cc1cc(-n2cc3c(n2)CCC(NC(=O)c2ccc4c(c2)NC(=O)CS4)C3)c2cc(F)ccc2n1 (stereo not drawn)", "0.5 µg/mL"],
  ["COc1ccc2nccc(-n3cc4c(n3)CCC(NCc3ccc5c(c3)OCO5)C4)c2n1 (stereo not drawn)", "0.25 µg/mL"],
  ["COc1ccc2nccc(-n3cc4c(n3)CCC(NCc3ccc5c(c3)OCCCO5)C4)c2n1 (stereo not drawn)", "1 µg/mL"],
  ["O=C1CSc2ccc(C(=O)NC3CCc4nn(-c5ccnc6cc(Cl)ccc56)cc4C3)cc2N1 (stereo not drawn)", "> 0.5 µg/mL"],
  ["COc1ccc2nccc(-n3cc4c(n3)CCC(NC(=O)c3cc5ccccc5[nH]3)C4)c2c1 (stereo not drawn)", "1 µg/mL"],
  ["COc1ccc2nccc(-n3cc4c(n3)CCC(NC(=O)c3ccc5c(c3)NC(=O)CO5)C4)c2c1 (stereo not drawn)", "0.5 µg/mL"],
  ["COc1ccc2nccc(-n3cc4c(n3)CCC(NCc3ccc5c(c3)NCCS5)C4)c2c1 (stereo not drawn)", "0.0625 µg/mL"],
  ["O=C1CSc2ccc(C(=O)NC3CCc4nn(-c5cccc6ccccc56)cc4C3)cc2N1 (stereo not drawn)", "0.125 µg/mL"],
  ["COc1ccc2nccc(-n3cc4c(n3)CCC(NC(=O)c3ccc5c(c3)NC(=O)CS5)C4)c2c1 (stereo not drawn)", "0.125 µg/mL"],
  ["COc1ccc2nccc(-n3cc4c(n3)CCC(NCc3ccc5c(n3)NC(=O)CO5)C4)c2n1 (stereo not drawn)", "0.016 µg/mL"],
  ["COc1ccc2nccc(-n3cc4c(n3)CCC(NCc3ccc5c(c3)NC(=O)CS5)C4)c2n1 (stereo not drawn)", "0.03 µg/mL"],
  ["COc1ccc2nccc(-n3cc4c(n3)CCC(NCc3ccc5c(c3)NC(=O)CS5)C4)c2c1 (stereo not drawn)", "0.16 µg/mL"],
  ["COc1ccc2nccc(-n3cc4c(n3)CCC(NC(=O)c3cc5c(cc3F)SCC(=O)N5)C4)c2n1 (stereo not drawn)", "0.125 µg/mL"],
  ["COc1ccc2nccc(-n3cc4c(n3)CCC(NC(=O)c3cc5c(cc3Br)SCC(=O)N5)C4)c2c1 (stereo not drawn)", "0.125 µg/mL"],
  ["COc1ccc2nccc(-n3cc4c(n3)CCC(NCc3ccc5c(c3)NCCS5)C4)c2n1 (stereo not drawn)", "0.03 µg/mL"],
  ["COc1ccc2nccc(-n3cc4c(n3)CCC(NC(=O)c3cc5c(cc3F)SCC(=O)N5)C4)c2c1 (stereo not drawn)", "0.25 µg/mL"],
  ["COc1ccc2nccc(-n3cc4c(n3)CCC(NC(=O)c3cc5c(cc3Br)SCC(=O)N5)C4)c2n1 (stereo not drawn)", "0.25 µg/mL"],
  ["COc1ccc2nccc(-n3cc4c(n3)CCC(NC(=O)c3cc5c(cc3C(F)(F)F)SCC(=O)N5)C4)c2c1 (stereo not drawn)", "0.25 µg/mL"]
]}

###

Test: Inhibition of bacterial DNA gyrase
I'd appreciate it if you marked entries 1 when IC50 is lower than 1 µg/mL and -1 when it is not.

{"columns": ["COMPOUND", "LABEL"],
 "data": [
  ["COc1ccc2nccc(-n3cc4c(n3)CCC(NC(=O)c3ccc5c(c3)OCCO5)C4)c2n1 (centres undefined)", -1],
  ["COc1ccc2nccc(-n3cc4c(n3)CCC(NCCCc3ccccc3)C4)c2n1 (centres undefined)", 1],
  ["COc1ccc2nccc(-n3cc4c(n3)CCC(NCc3ccc5c(n3)NC(=O)CO5)C4)c2n1 (centres undefined)", 1],
  ["COc1ccc2nccc(-n3cc4c(n3)CCC(NCc3ccc5c(c3)OCCCO5)C4)c2n1 (centres undefined)", -1],
  ["COc1ccc2nccc(-n3cc4c(n3)CCC(NCc3ccc5c(c3)NCCS5)C4)c2n1 (centres undefined)", 1],
  ["COc1ccc2nccc(-n3cc4c(n3)CCC(NC(=O)c3cc5ccccc5[nH]3)C4)c2c1 (centres undefined)", -1],
  ["COc1ccc2nccc(-n3cc4c(n3)CCC(NC(=O)/C=C/c3ccccc3)C4)c2n1 (centres undefined)", -1]
]}

###

Reported IC50 values are given for each entry in this list.
Assay: Inhibition of bacterial DNA gyrase

{"columns": ["MOLECULE", "UNIT SYMBOL", "IC50"],
 "data": [
  ["O=C1CSc2ccc(C(=O)NC3CCc4nn(-c5cccc6cccnc56)cc4C3)cc2N1 (centres undefined)", "µg/mL", 2],
  ["COc1ccc2nccc(-n3cc4c(n3)CCC(NC(=O)c3ccc5c(c3)NC(=O)CS5)C4)c2n1 (centres undefined)", "µg/mL", 0.25],
  ["O=C1CSc2ccc(C(=O)NC3CCc4nn(-c5cccc6ccccc56)cc4C3)cc2N1 (centres undefined)", "µg/mL", 2],
  ["COc1ccc2nccc(-n3cc4c(n3)CCC(NC(=O)c3cc5c(cc3Br)SCC(=O)N5)C4)c2n1 (centres undefined)", "µg/mL", 0.25],
  ["COc1ccc2nccc(-n3cc4c(n3)CCC(NC(=O)c3cc5c(cc3F)SCC(=O)N5)C4)c2n1 (centres undefined)", "µg/mL", 0.12],
  ["COc1ccc2nccc(-n3cc4c(n3)CCC(NCc3ccc5c(c3)NCCS5)C4)c2c1 (centres undefined)", "µg/mL", 0.5],
  ["COc1ccc2nccc(-n3cc4c(n3)CCC(NC(=O)c3c(F)cc5c(c3F)NC(=O)CS5)C4)c2n1 (centres undefined)", "µg/mL", 1],
  ["COc1ccc2nccc(-n3cc4c(n3)CCC(NC(=O)c3cc5c(cc3F)SCC(=O)N5)C4)c2c1 (centres undefined)", "µg/mL", 8],
  ["COc1ccc2nccc(-n3cc4c(n3)CCC(NC(=O)c3cc5c(cc3Cl)SCC(=O)N5)C4)c2n1 (centres undefined)", "µg/mL", 0.12]
]}

###

Tested on: Staphylococcus aureus
Assay: Antibacterial activity against Staphylococcus aureus ATCC 13709
Type: functional
I'd appreciate it if you marked entries true when MIC is lower than 0.5 mg/L and false when it is not.

{"columns": ["MOLECULE", "LABEL"],
 "data": [
  ["CCOC(=O)c1cc2c(cc1C(=O)NC1CCc3nn(-c4ccnc5ccc(OC)cc45)cc3C1)NC(=O)CS2 (centres undefined)", "false"],
  ["COc1ccc2nccc(-n3cc4c(n3)CCC(NC(=O)c3ccc5c(c3)NC(=O)CO5)C4)c2n1 (centres undefined)", "true"],
  ["C[C@@H]1CN(c2c(F)c(N)c3c(=O)c(C(=O)O)cn(C4CC4)c3c2F)C[C@H](C)N1", "true"],
  ["O=C1CSc2ccc(C(=O)NC3CCc4nn(-c5ccnc6cc(Cl)ccc56)cc4C3)cc2N1 (centres undefined)", "false"],
  ["COc1ccc2nccc(-n3cc4c(n3)CCC(NC(=O)c3cc(F)c(Cl)cc3Cl)C4)c2c1 (centres undefined)", "true"],
  ["O=C1CSc2ccc(C(=O)NC3CCc4nn(-c5cccc6cccnc56)cc4C3)cc2N1 (centres undefined)", "true"]
]}

###

System: Staphylococcus aureus
Experiment: Antibacterial activity against Staphylococcus aureus ATCC 13709
Type: functional
Reported MIC values are given for each entry in this list.

{"columns": ["COMPOUND", "ASSAYED SYSTEM", "BOUND TYPE", "MIC / mg/L"],
 "data": [
  ["COc1ccc2nccc(-n3cc4c(n3)CCC(NC(=O)c3cc5c(cc3C)SCC(=O)N5)C4)c2c1 (stereo not drawn)", "Staphylococcus aureus", "=", 0.5],
  ["COc1ccc2nccc(-n3cc4c(n3)CCC(NCc3ccc5c(n3)NC(=O)CO5)C4)c2c1 (stereo not drawn)", "Staphylococcus aureus", "=", 1],
  ["COc1ccc2nccc(-n3cc4c(n3)CCC(NC(=O)c3cc5c(cc3Br)SCC(=O)N5)C4)c2c1 (stereo not drawn)", "Staphylococcus aureus", "=", 0.125],
  ["COc1ccc2nccc(-n3cc4c(n3)CCC(NCc3ccc5c(c3)OCCO5)C4)c2n1 (stereo not drawn)", "Staphylococcus aureus", "=", 0.03],
  ["COc1ccc2nccc(-n3cc4c(n3)CCC(NCCCc3ccccc3)C4)c2n1 (stereo not drawn)", "Staphylococcus aureus", "=", 0.25],
  ["COc1ccc2nccc(-n3cc4c(n3)CCC(NCc3ccc5c(c3)OCO5)C4)c2n1 (stereo not drawn)", "Staphylococcus aureus", "=", 0.5],
  ["COc1ccc2nccc(-n3cc4c(n3)CCC(NC(=O)c3c(F)cc5c(c3F)NC(=O)CS5)C4)c2c1 (stereo not drawn)", "Staphylococcus aureus", "=", 0.125],
  ["Cc1cc(-n2cc3c(n2)CCC(NC(=O)c2ccc4c(c2)NC(=O)CS4)C3)c2cc(F)ccc2n1 (stereo not drawn)", "Staphylococcus aureus", "=", 8],
  ["COc1ccc2nccc(-n3cc4c(n3)CCC(NC(=O)c3cc5c(cc3Br)SCC(=O)N5)C4)c2n1 (stereo not drawn)", "Staphylococcus aureus", "=", 0.125],
  ["COc1ccc2nccc(-n3cc4c(n3)CCC(NC(=O)c3ccc5c(c3)NC(=O)CS5)C4)c2n1 (stereo not drawn)", "Staphylococcus aureus", "=", 0.06],
  ["COc1ccc2nccc(-n3cc4c(n3)CCC(NC/C=C/c3ccccc3)C4)c2n1 (stereo not drawn)", "Staphylococcus aureus", "=", 0.06],
  ["COc1ccc2nccc(-n3cc4c(n3)CCC(NCc3ccc5c(c3)NC(=O)CS5)C4)c2n1 (stereo not drawn)", "Staphylococcus aureus", "=", 0.25],
  ["COc1ccc2nccc(-n3cc4c(n3)CCC(NCc3ccc5c(n3)NC(=O)CO5)C4)c2n1 (stereo not drawn)", "Staphylococcus aureus", "=", 0.25],
  ["O=C(O)c1cn(C2CC2)c2cc(N3CCNCC3)c(F)cc2c1=O [CIPROFLOXACIN]", "Staphylococcus aureus", "=", 0.25],
  ["COc1ccc2nccc(-n3cc4c(n3)CCC(NCc3ccc5c(c3)NCCS5)C4)c2n1 (stereo not drawn)", "Staphylococcus aureus", "<", 0.125],
  ["COc1ccc2nccc(-n3cc4c(n3)CCC(NC(=O)/C=C/c3ccccc3)C4)c2c1 (stereo not drawn)", "Staphylococcus aureus", "=", 1],
  ["COc1ccc2nccc(-n3cc4c(n3)CCC(NC(=O)c3cc5c(cc3C(F)(F)F)SCC(=O)N5)C4)c2n1 (stereo not drawn)", "Staphylococcus aureus", "=", 0.125],
  ["COc1ccc2nccc(-n3cc4c(n3)CCC(NC(=O)c3cc5c(cc3C)SCC(=O)N5)C4)c2n1 (stereo not drawn)", "Staphylococcus aureus", "=", 0.25]
]}
